# STUDY_TARGET: DDR2 (Homo sapiens, UniProt Q16832)
# Sequence (Q16832 22-855): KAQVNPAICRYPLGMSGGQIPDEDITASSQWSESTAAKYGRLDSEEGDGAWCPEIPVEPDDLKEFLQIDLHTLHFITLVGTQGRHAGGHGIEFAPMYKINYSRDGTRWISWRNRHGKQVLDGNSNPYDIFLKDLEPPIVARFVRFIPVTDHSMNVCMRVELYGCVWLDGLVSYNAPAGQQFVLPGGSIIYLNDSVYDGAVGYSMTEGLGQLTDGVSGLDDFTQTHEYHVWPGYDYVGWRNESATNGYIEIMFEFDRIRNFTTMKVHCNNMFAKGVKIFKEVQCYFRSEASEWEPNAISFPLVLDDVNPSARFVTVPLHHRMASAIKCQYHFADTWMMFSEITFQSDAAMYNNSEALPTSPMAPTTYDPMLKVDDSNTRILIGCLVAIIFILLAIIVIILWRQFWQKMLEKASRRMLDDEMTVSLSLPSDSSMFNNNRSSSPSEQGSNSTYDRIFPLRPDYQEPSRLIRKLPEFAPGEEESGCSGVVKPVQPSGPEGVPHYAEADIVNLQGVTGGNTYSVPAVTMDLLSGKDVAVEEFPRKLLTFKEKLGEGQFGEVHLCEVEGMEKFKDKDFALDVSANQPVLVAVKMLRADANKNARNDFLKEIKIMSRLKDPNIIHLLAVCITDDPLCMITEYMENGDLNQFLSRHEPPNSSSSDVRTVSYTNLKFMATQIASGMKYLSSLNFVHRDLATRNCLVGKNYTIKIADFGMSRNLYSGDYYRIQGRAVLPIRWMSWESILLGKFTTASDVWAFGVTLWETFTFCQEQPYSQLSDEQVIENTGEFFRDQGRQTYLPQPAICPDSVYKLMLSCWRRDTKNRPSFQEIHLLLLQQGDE
# TEST_PROTOCOL: DDR2 cell based assay (phospho-ELISA in HEK293T-DDR2 recombinant cells)
# SETUP_CONDITIONS: bovine Type II Collagen 50 μg/ml
READOUT_KIND: IC50

query: Entry Cc1ccc(C(=O)Nc2cccc(C(F)(F)F)c2)cc1CNc1cncnc1 needs its IC50 filled in; supply it.
result: < 10 nM

query: Entry COc1ccc(NC(=O)c2ccc(C)c(CNc3cncnc3)c2)cc1C(F)(F)F needs its IC50 filled in; supply it.
result: < 10 nM

query: Entry Cc1ccc(C(=O)Nc2cccc(OC(F)(F)F)c2)cc1CNc1cncnc1 needs its IC50 filled in; supply it.
result: 10 to 15 nM

query: Entry Cc1cn(-c2cc(NC(=O)c3ccc(C)c(CNc4cncnc4)c3)cc(C(F)(F)F)c2)cn1 needs its IC50 filled in; supply it.
result: 10 to 15 nM

query: Entry Cc1ccc(C(=O)Nc2cccc(C(F)(F)F)c2)cc1CNc1cccnc1 needs its IC50 filled in; supply it.
result: < 10 nM

query: Entry O=C(Nc1cccc(OC(F)(F)F)c1)c1ccc(F)c(CNc2cnc3[nH]ccc3c2)c1 needs its IC50 filled in; supply it.
result: 10 to 15 nM

query: Entry Cn1ccc(-c2cncc(NCc3cc(C(=O)Nc4cccc(OC(F)(F)F)c4)ccc3F)c2)n1 needs its IC50 filled in; supply it.
result: < 10 nM
